Data origin: patent US9097673B2

test system: U-2 OS cells; assay: Multiplexed MDR detection by flow cytometry (dye uptake, with PI); type: cell-based, human; details: Fluo-8 AM + PI;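 also: MAF computed as 100 × (MFI with inhibitor − MFI without) / MFI with inhibitor, after 5 min inhibitor pre-incubation then 30 min dye loading at 37 °C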
value-kind: F8 + PI, MAF
Number only, please.

The cases that follow already have their F8 + PI, MAF on record.
{"columns": ["compound", "target-entity", "F8 + PI, MAF"],
 "data": [
  ["COc1ccc2c3c([nH]c2c1)[C@H](C=C(C)C)N1C(=O)[C@@H]2CCCN2C(=O)[C@@H]1C3 [FTC, fumitremorgin C]", "U-2 OS cells", "−6.3"],
  ["CN(C)C(=O)CCSC(SCCC(=O)O)c1cccc(/C=C/c2ccc3ccc(Cl)cc3n2)c1 (centres unmarked) [MK-571]", "U-2 OS cells", 52.9],
  ["CO[C@@H]1[C@@H](OC(N)=O)[C@@H](O)[C@H](Oc2ccc3c(O)c(NC(=O)c4ccc(O)c(CC=C(C)C)c4)c(=O)oc3c2C)OC1(C)C [Novobiocin, novobiocin]", "U-2 OS cells", 12.3],
  ["COc1ccc(CCN(C)CCCC(C#N)(c2ccc(OC)c(OC)c2)C(C)C)cc1OC (centres unmarked) [Verapamil, verapamil]", "U-2 OS cells", 33.0]
]}

Quickly give me recorded F8 + PI, MAF for CCCN(CCC)S(=O)(=O)c1ccc(C(=O)O)cc1 [Probenecid, probenecid]
23.1
